system: EPHA3; settings: concentration: 1 μM, replicates: in singlicate; n = 1;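 also: KINOMEscan kinase panel screen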
I'd be grateful if you could share measured %Inh for these entries.
Report the value in % with no unit label.

# input compound: "Nc1nc(-c2ccccc2F)c(-c2ccnc3ccccc23)s1" ; wanted: its %Inh
0

# input compound: "CCC(=O)c1c(-c2ccccc2)c2cc(Cl)ccc2c(=O)n1Cc1cc(S(C)(=O)=O)n(CCC(C)(C)O)n1" ; wanted: its %Inh
4

# input compound: "O=C(Nc1n[nH]c2nc(-c3ccccc3)c(Br)cc12)C1CC1" ; wanted: its %Inh
0

# input compound: "CCC(=O)c1c(-c2ccccc2)c2cc(Cl)ccc2c(=O)n1Cc1cc(C(=O)NC2CC2)n(C)n1" ; wanted: its %Inh
8

# input compound: "FC(F)(F)c1ccc(-c2ncn(CCCN3CCOCC3)c2-c2ccncc2)cc1" ; wanted: its %Inh
0

# input compound: "Cc1ccc(-c2ccc3c(ccc4sc5c(c43)NC[C@@H](C)N=C5N(C)C)n2)cn1" ; wanted: its %Inh
0

# input compound: "Cc1cccc(-c2nc(Nc3ccc4c(cnn4C)c3)c3ccccc3n2)n1" ; wanted: its %Inh
0

# input compound: "O=C1NC(=O)C(c2ccccc2)=C1Nc1cccc(O)c1" ; wanted: its %Inh
8

# input compound: "Fc1cccc(CSc2nnc(-c3ccc4c(c3)CCO4)o2)c1" ; wanted: its %Inh
13

# input compound: "Cc1nc(N(C)[C@H]2CN(C(=O)CC#N)CC[C@H]2C)c2cc[nH]c2n1" ; wanted: its %Inh
28

# input compound: "COc1ccc(-c2cc3c(C)nc(N)nc3n([C@H]3CC[C@H](OCCO)CC3)c2=O)cn1" ; wanted: its %Inh
0

# input compound: "COc1cc2ncn(-c3cc(OCc4ccncc4Br)c(C(N)=O)s3)c2cc1OC" ; wanted: its %Inh
21

# input compound: "COc1cc2ncn(-c3cc(OCCCc4ccccc4)c(C(N)=O)s3)c2cc1OC" ; wanted: its %Inh
0

# input compound: "Nc1nccc2scc(-c3ccc4c(c3)CCN4C(=O)Cc3ccccc3)c12" ; wanted: its %Inh
38

# input compound: "CCC(=O)c1c(-c2ccccc2)c2cc(Cl)ccc2c(=O)n1Cc1cc(S(C)(=O)=O)n(CC(F)F)n1" ; wanted: its %Inh
7

# input compound: "Cc1ccc(Oc2ccc(Nc3ncnc4cc[nH]c34)cc2C)cn1" ; wanted: its %Inh
3

# input compound: COc1ccc(CNC(=O)NC2CCN(c3ccnc(Nc4ccc(F)cc4)n3)C2)cc1 (centres unmarked) ; wanted: its %Inh
17

# input compound: "Nc1n[nH]c2nnc(-c3ccccc3)c(-c3ccccc3)c12" ; wanted: its %Inh
0

# input compound: "O=C(Nc1ccc2c(c1)OCO2)NC1CCN(c2ccnc(NCc3ccc(F)cc3)n2)CC1" ; wanted: its %Inh
0

# input compound: "O=C(NCCNc1ccnc(Nc2ccc(F)cc2)n1)Nc1ccc2c(c1)OCO2" ; wanted: its %Inh
0

# input compound: "CCn1c(-c2ccoc2)nc2cnccc21" ; wanted: its %Inh
0

# input compound: "COC(=O)c1c(-c2ccccc2)c2cc(C)ccc2c(=O)n1Cc1ccccc1" ; wanted: its %Inh
14

# input compound: "COc1cc2ncn(-c3cc(OCc4ccncc4)c(C(N)=O)s3)c2cc1OC" ; wanted: its %Inh
12

meta.source: paper PMC5540273
